Target: T1, human IL-18BP (human, UniProt O95998 31-194)
T1 construct: UniProt printed as 095998; also called hIL-18BP
T1 sequence: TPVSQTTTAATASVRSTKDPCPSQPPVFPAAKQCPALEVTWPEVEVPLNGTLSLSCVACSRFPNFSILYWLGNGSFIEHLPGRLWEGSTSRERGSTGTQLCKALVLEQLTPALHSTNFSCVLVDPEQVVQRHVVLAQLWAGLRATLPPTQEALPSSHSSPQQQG
Assay: BLI, apparent KD
Field: pKd. Provide a value for each of the binders that follow.
Entry type: numeric. Quantity: pKd, the -log10 of concentration in molar units.

The recorded pKd for entry SA301a LC-Q90M (antibody, name in Kabat numbering, V domains shown, IgG1 kappa) VH: QVQLQESGPGLVKPSQTLSLTCTVSGYSITSDYNSHWIRQPPGKGLEWIGYIHYSGSTNYNPSLKSRVTISRDTSKNQFSLKLSSVTAADTAVYYCARNYGSIYVNYFDYWGQGTLVTVSS VL: EIVLTQSPATLSLSPGERATLSCSASSSVSYMYWYQQKPGQAPRPLIYRTSNLASGIPARFSGSGSGTDFTLTISSLEPEDFAVYYCQMYHSYPTFGGGTKVEIK equals 9.57

For SA301a LC-Q89K (antibody, V domains shown) VH: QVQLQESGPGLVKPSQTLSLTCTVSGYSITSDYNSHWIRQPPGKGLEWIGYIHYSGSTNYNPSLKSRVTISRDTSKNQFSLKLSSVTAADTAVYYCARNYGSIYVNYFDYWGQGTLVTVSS VL: EIVLTQSPATLSLSPGERATLSCSASSSVSYMYWYQQKPGQAPRPLIYRTSNLASGIPARFSGSGSGTDFTLTISSLEPEDFAVYYCKQYHSYPTFGGGTKVEIK the binder record lists pKd as 9.01
